- PROCEDURE TEXT: Apparent permeability across apical to basolateral side in dog MDCK-II cells
- Assay type: ADME, cell-based, Canis lupus familiaris
TEST READOUT: Papp A→B (×10⁻⁶ cm/s)

| STRUCTURE SMILES STRING | TEST READOUT | OBS VALUE |
| --- | --- | --- |
| O=C(/C=C/C1CC1)N1CCC2(CCCC(=O)N2c2ccc(Cl)c(F)c2)CC1 | Papp A→B | 19 |
| O=C(/C=C/c1ccccc1)N1CCC2(CCOC(=O)N2c2ccc(Cl)c(F)c2)CC1 | Papp A→B | 26 |
| O=C1CCCC2(CCN(c3cnc4ccccc4n3)CC2)N1Cc1ccccc1 | Papp A→B | 33 |
| O=C(/C=C/C1CCC1)N1CCC2(CCCC(=O)N2c2ccc(Cl)c(F)c2)CC1 | Papp A→B | 28 |
| O=C(/C=C/c1ccccc1)N1CCC2(CCCC(=O)N2Cc2ccccc2)CC1 | Papp A→B | 16 |
| COc1nc(N(CC(C)(C)F)c2cc(Cl)c(F)cc2F)cnc1C(=O)[C@H]1C[C@@H]1C(=O)O | Papp A→B | 7 |
| O=C(/C=C/c1ccccc1)N1CCC2(CCCC(=O)N2c2ccc(F)c(F)c2)CC1 | Papp A→B | 22 |
| CC1(C)CN(c2cc(N3CCC4(CCCC(=O)N4c4ccc(Cl)c(F)c4)CC3)ncn2)C1 | Papp A→B | 30 |
| O=C(/C=C/c1ccccc1)N1CCC2(CCCC(=O)N2c2ccc(Cl)c(F)c2)CC1 | Papp A→B | 28 |
| O=C1CCCC2(CCN(c3cc(OCC(F)(F)F)ncn3)CC2)N1c1ccc(Cl)c(F)c1 | Papp A→B | 28 |
| O=C1CCCC2(CCN(c3cc(OCC(F)(F)F)ncn3)CC2)N1c1ccc(F)c(F)c1 | Papp A→B | 23 |
| O=C(/C=C/c1ccccc1)N1CCC2(CCCC(=O)N2c2ccccc2)CC1 | Papp A→B | 19 |

###

- PROCEDURE TEXT: Clearance in Beagle dog at 1 mg/kg, iv measured upto 24 hrs by LC-MS/MS analysis
- Format: ADME, organism-based, Canis lupus familiaris
- MEASUREMENT SETUP: in vivo

| STRUCTURE SMILES STRING | clearance [mL/min/kg] |
| --- | --- |
| O=C1CCCC2(CCN(c3cc(OCC(F)(F)F)ncn3)CC2)N1c1ccc(F)c(F)c1 | 14 |

###

- PROCEDURE TEXT: Oral bioavailability in Sprague-Dawley rat at 3 mg/kg measured upto 24 hrs by LC-MS/MS analysis
- Type: ADME, organism-based
- MEASUREMENT SETUP: in vivo

| STRUCTURE SMILES STRING | bioavailability |
| --- | --- |
| O=C1CCCC2(CCN(c3cc(OCC(F)(F)F)ncn3)CC2)N1c1ccc(F)c(F)c1 | 55% |

###

- PROCEDURE TEXT: AUC (0 to infinity) in Beagle dog at 1 mg/kg, iv measured upto 24 hrs by LC-MS/MS analysis
- Assay type: ADME, organism-based, Canis lupus familiaris
- MEASUREMENT SETUP: in vivo

| STRUCTURE SMILES STRING | AUC(0-inf) / nM·h |
| --- | --- |
| O=C1CCCC2(CCN(c3cc(OCC(F)(F)F)ncn3)CC2)N1c1ccc(F)c(F)c1 | 2560 |
